# Tested on: Saccharomyces cerevisiae BY4741 SeMeCo community
# measurement.description: z-score of subpopulation abundance vs DMSO median, subpopulation auxotrophic for LUM; higher = larger share of this subpopulation than in DMSO controls
# condition.parameters: 10 µM; 24 h; SM minimal medium; subpopulation (auxotrophy): LUM
Where a name gives a salt, the structure may show the parent alone.
Hi, to clarify the labels: rule met covers z-score of subpopulation abundance from -0.5 upward, rule not met covers anything below -0.5.

| compound | discrete.label |
| --- | --- |
| CCCCC(=O)O[C@H]1CC[C@H]2[C@@H]3CCc4cc(O)ccc4[C@H]3CC[C@]12C [Estradiol valerate] | rule met |
| CCCCCCCCCCCCCCCC[N+](C)(C)C [Cetrimonium Bromide (CTAB)] | rule met |
| Cc1ncc([N+](=O)[O-])n1CC(O)CCl (stereo not drawn) | rule not met |
| N#CC(c1ccc(Cl)cc1)c1c(Cl)cc(-n2ncc(=O)[nH]c2=O)cc1Cl (stereo not drawn) | rule not met |
| C[C@H]1c2cccc(O)c2C(O)=C2C(=O)[C@]3(O)C(O)=C(C(N)=O)C(=O)[C@@H](N(C)C)[C@@H]3[C@@H](O)[C@@H]21 [Doxycycline] | rule met |
| C#CCN[C@@H]1CCc2ccccc21 [Rasagiline Mesylate] | rule met |
| CO/N=C(\C(=O)N[C@@H]1C(=O)N2C(C(=O)O)=C(CSC(=O)c3ccco3)CS[C@H]12)c1csc(N)n1 [Ceftiofur HCl] | rule met |
| O=C(C1CCCCC1)N1CC(=O)N2CCc3ccccc3C2C1 (stereo not drawn) | rule met |
